# ASSAY_EXPLANATION: Area under the concentration time curve in rat after 40 mg/kg oral dosage
# Assay type: ADME, organism-based
# Set-up: dose 40 mg/kg, route oral; unit not given here
# CONDITIONS_USED: in vivo
Kind request: treat 2 as inclusive, so AUC at 2 or higher is Condition met, anything lower is Condition not met.

smiles_repr=N#Cc1ccc(Nc2nc(N)nc(Cc3c(Cl)ccc4[nH]ccc34)n2)cc1 class_assignment="Condition met"
smiles_repr=Cc1cc(C#N)cc(C)c1Oc1nc(Nc2ccc(C#N)cc2)nc(CO)c1Br class_assignment="Condition not met"
smiles_repr=Cc1cc(C#N)cc(C)c1Nc1ccnc(Nc2ccc(C#N)cc2)n1 class_assignment="Condition met"
smiles_repr=N#Cc1ccc(Nc2nc(N)nc(Cc3c(Cl)ccc(Cl)c3Cl)n2)cc1 class_assignment="Condition met"
smiles_repr=N#Cc1ccc(Nc2nc(N)nc(Oc3c(Cl)cccc3Cl)n2)cc1 class_assignment="Condition not met"
smiles_repr=N#Cc1ccc(Nc2nc(N)cc(Cc3c(Cl)cccc3Cl)n2)cc1 class_assignment="Condition met"
smiles_repr=N#Cc1ccc(Nc2nc(Cc3c(Cl)cccc3Cl)nc(NO)n2)cc1 class_assignment="Condition not met"
smiles_repr=N#Cc1ccc(Nc2nc(N)nc(Cc3c(Cl)cccc3Cl)n2)cc1 class_assignment="Condition not met"

* * *

# ASSAY_EXPLANATION: pKa value was determined
# Type: physicochemical
# pKa per record follows
EXPERIMENTAL_ENDPOINT: pKa

smiles_repr=Cc1cc(C#N)cc(C)c1Oc1nc(Nc2ccc(C#N)cc2)nc(CO)c1Br experimental_endpoint=pKa recorded_measurement=2
smiles_repr=N#Cc1ccc(Nc2nc(N)nc(Cc3c(Cl)ccc(Cl)c3Cl)n2)cc1 experimental_endpoint=pKa recorded_measurement=2.8
smiles_repr=Cc1cc(C)c(Nc2ncnc(Nc3ccc(C#N)cc3)n2)c(C)c1 experimental_endpoint=pKa recorded_measurement=2.6
